B1: tRNA (parent)
chain: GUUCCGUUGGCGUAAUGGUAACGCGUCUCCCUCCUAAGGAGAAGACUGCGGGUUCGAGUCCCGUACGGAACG

# Variants of: B1
# Procedure Summary: yeast fitness relative to wild type (ratio to wild type); higher = fitter; tRNA-Arg(CCU), competitive growth, 37 C, YPD
Variants at the floor of the assay were thinned out.
Quick rule for you: yeast fitness at 0.6 or higher means condition met, lower means condition not met.

Would you say "GUUCCAUUGGCGUAAUGGUAACGCGUCUCCCUCCUAAGGAGGAGACUGCGGGUUCGAGUCCCGUACGGAACG" shows yeast fitness at minimum 0.6? condition met

Also "GUUCCGUUGGCGUAAUGGUAACGGGUCUCCCUUCUAUGGAGAAGACUGGGGGUUCGAGUCCCGCACGGAACG" ? condition not met

Also "GUUCCGUCGGCGUAAUGGUAACGCGUCUCCCUCCUAAGGAGAAGACCGCGGGUUCGAGUCCCGUACGGCACG" ? condition met

Also "GUUCCGAUGGCGUAAUGGUAGCGCGUCUCCCUCCUAAGGAGAAGACUGCGGGUUCGAGUCGCGUAGGGAACG" ? condition not met

Also "GUUCCGAUGGCGUAAUGGUAACGCGUCUCCCUCCUAAGGAGAAGCCCGCGGGUUUGAGUCCCGUCCGGCACG" ? condition not met

Also "GUUCCGUUGGCGUAAUGGUAACGCGUCUCCCUCCAAAGGAGAAGAAUGGGGAUUCGAGUCCCGUACGGAACG" ? condition not met

Also "GUUCCAUUGGCGUAAUGGUAACCCGUCUCCCUCCUAUGGAGAAGACUGCGGGUUCGGGUCCCGUCCGGAUCG" ? condition not met

Also "GUUCUGUCGGCGUAAUGGUAACGCGUCUCGGUCCUAAGGAGAAGACUGCGGGUUCGAGUCCCGUCCGGAACG" ? condition not met

Also "GUUCCGUUGGCGUAAUGGUAACGCGUCUCCCUCCUAAGGAGAAGACUGCGGGUUCGAGUCCCGUAUGGGACG" ? condition met

Also "GUUCCGUUGGCGUCAUGGUAAUGCGUCUCCCUCCUAAGGAGAAGACUGCGGGUUCGAGUCCCGUAUGGAACG" ? condition not met

Also "GUUCCAUUGGCGUAAUGGUUACGCGUAUCCCUCCUAAGGAGAAGACUGCGGGUUCGUGUCCAGUACGGAACG" ? condition not met

Also "GUUCCGUUGGAGUACUGGUAACGGGUCUCCCUCAUAAGGAGAAGACUGCGGGUUCGAGUCCCGUACGGAACG" ? condition not met

Also "GUUCCGUUGGCAUAAUGGUAAUGCGUCUCCCUCCUAAGGAGAAGACUGCGGGUUCGUGUCCCGUACGGAACG" ? condition not met

Also "GUUCCGUUCGCGUAAUGGUAACGCGUAUCUCUGCUAAGGAGAAGACUGCGGGUUCGAGUCCCGUACGGAACG" ? condition not met

Also "GCUCCGUUGGCGUAAUGAUAACGCGUCUCCCUCCUCAGGAGAAGUCUGGGGGUUCGAGUCCCGUACGGAACG" ? condition not met

Also "GUUCCGUUGGCGUAAUGGUAACGCAUCUCCCUCCUAAGGCGAAGAUUGCGGGUUCGAGUCCCGUACGGAACG" ? condition met

Also "GUUCUGUUGGCGUAAUGGUAACGCAUCUCCCUCCUAAGGAGAAGACUGAGGGUUCGAGUCCCGUACGGUACG" ? condition not met

Also "GUUCCGUUGGCGUAAUGGUAACGCGUCUCCCUGCUAAGGAGAAGACUGCGGGUUCGAGUCCCGUAAGGAACG" ? condition not met

Also "GUUCCGUCGGCGUAAUGGUAACGCGUUUCCAUCCUAAGGAGAAGACUGCGGGUUAAAGUCCCGUACGGAACG" ? condition not met

Also "GUUCCGCUGGCGUCAUGGUAACGCGUCUCCCUCCUAAGGAGAAGACUGCGGGUUCGAGUCCCGUCCGGAACG" ? condition not met

Also "GUUCCGUUGGCGUAAUGGUAACGCGUCUCCCUCCUAAGGAGAAGACUGCGGGCUCGAGUCCCGCACGGAACG" ? condition met

Also "GUUCCGUUGGCGUAAUGGUAACACGUCUCCCUCCUAAGGAGAAGACUGCGGGUUAGAGUCCCGUACGGAACG" ? condition not met
